Target: Human leukocyte elastase (HLE) (Homo sapiens)
Construct: purchased CALBIOCHEM
Sequence (P08246 30-267): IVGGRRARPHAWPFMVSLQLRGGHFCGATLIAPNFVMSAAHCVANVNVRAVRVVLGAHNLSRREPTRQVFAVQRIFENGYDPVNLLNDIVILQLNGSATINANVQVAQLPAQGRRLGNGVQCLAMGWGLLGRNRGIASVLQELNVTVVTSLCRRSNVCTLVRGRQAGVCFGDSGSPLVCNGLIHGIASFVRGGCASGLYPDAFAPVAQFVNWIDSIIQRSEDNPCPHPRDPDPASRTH
Test: Human leukocyte elastase assay
Type: biochemical
Conditions: 50 μM compound; 30 minutes pre-incubation
Procedure: Human Leukocyte Elastase Assay Human leukocyte elastase (HLE) (CALBIOCHEM) was dissolved in saline at 1 mg/ml and further diluted 1/10 in assay buffer (0.2 M Tris, pH 8.0) before use. 0.75 μl of test compound in DMF (or DMF alone), 50 μl of assay buffer and 50 μl of enzyme were added to 96 well plate, mixed and pre-incubated for 30 minutes at ambient temperature. […] The increase in absorbance at 405 nm was monitored for 3 min. with BIO-RAD model 3550 microplate reader.
Label 1.0 when inhibition at 50 µM is at or above 50%; anything below gets 0.0.

>>> assigned_label("Cc1c(Br)ccc2nc(N(C)Cc3ccccc3)oc(=O)c12 [CC4, reference compound]")
1.0
>>> assigned_label("C=CCN(C)c1nc2ccc(NC(=O)OC(C)(C)C)c(C)c2c(=O)o1")
0.0
>>> assigned_label("Cc1c(NC(=O)OC(C)(C)C)ccc2nc(N3CCN(C(=O)c4ccco4)CC3)oc(=O)c12")
0.0
>>> assigned_label("Cc1c(NC(=O)c2ccccc2)ccc2nc(N(C)Cc3ccccc3)oc(=O)c12")
0.0
>>> assigned_label("Cc1cccc2nc(N(C)Cc3ccccc3)oc(=O)c12 [CC2, reference compound]")
1.0
>>> assigned_label("Cc1c(NC(=O)OC(C)(C)C)ccc2nc(N(C)C(C)C)oc(=O)c12")
0.0
>>> assigned_label("Cc1c(NC(=O)OC(C)(C)C)ccc2nc(N(C)Cc3ccccn3)oc(=O)c12")
0.0
>>> assigned_label("CC(=O)N1CCN(c2nc3ccc(NC(=O)OC(C)(C)C)c(C)c3c(=O)o2)CC1")
0.0
